Attribute: ring closure, halflife
# Procedure Text: Two-component bis-thiol stapling with 2,3-dibromomaleimide (200 uM), TCEP (100 uM); thioether formation followed at 395 nm
# Condition Parameters: the molecule shown is the open-chain precursor; 19-membered ring; 50 mM aq. phosphate buffer pH 6.0; 0.1 mM; 20.0 °C; 1.0 h
Just the number please, in min, no unit attached.

- Smiles Repr: "CC(=O)N[C@@H](CSC1=C(Br)C(=O)NC1=O)C(=O)N[C@@H](C)C(=O)N[C@@H](C)C(=O)N[C@@H](C)C(=O)N[C@H](CS)C(N)=O"
  Parameter: "ring closure, halflife"
  Reported Value: 8
- Smiles Repr: "CC(=O)N[C@H](CSC1=C(Br)C(=O)NC1=O)C(=O)N[C@@H](C)C(=O)N[C@@H](C)C(=O)N[C@@H](C)C(=O)N[C@H](CS)C(N)=O"
  Parameter: "ring closure, halflife"
  Reported Value: 10
- Smiles Repr: "CC(=O)N[C@@H](CSC1=C(Br)C(=O)NC1=O)C(=O)N[C@@H](C)C(=O)N[C@@H](C)C(=O)N[C@@H](C)C(=O)N[C@@H](CS)C(N)=O"
  Parameter: "ring closure, halflife"
  Reported Value: 8

Now look at this entry.
Qu. For the molecule shown here, CC(=O)N[C@H](CSC1=C(Br)C(=O)NC1=O)C(=O)N[C@@H](C)C(=O)N[C@@H](C)C(=O)N[C@@H](C)C(=O)N[C@@H](CS)C(N)=O , give the reported ring closure, halflife.
Ans. 8

Values compiled from paper PMC8650577.
